Tested on: NHEM-hTERT
Assay: cell viability relative to DMSO control (fraction of DMSO control); higher = less cytotoxic, active = 0.5 or less
Conditions: 1 µM; 120 h
So basically, if cell viability comes in under 1 it's yes (1), and if it's 1 or more it's no (0).

CS(=O)(=O)c1ccc(C2=C(c3ccccc3)C(=O)OC2)cc1    yes (1)

[Q] Identify whether the molecule "COC(=O)Nc1nc2ccc(C(=O)c3cccs3)cc2[nH]1" records cell viability below 1.
[A] yes (1)

[Q] Dear reviewer, please state whether "C1=C/COCc2cc(ccc2OCCN2CCCC2)Nc2nccc(n2)-c2cccc(c2)COC/1" has cell viability strictly beneath 1.
[A] no (0)

[Q] cell viability strictly < 1 for this molecule? "CC(C)(S)[C@@H](N)C(=O)O"
[A] no (0)

[Q] Check if cell viability falls below 1 for O=C1CCC(N2C(=O)c3ccccc3C2=O)C(=O)N1 (centres undefined) [Thalidomide] .
[A] no (0)

[Q] Lab log: compare recorded cell viability with 1; is it strictly lower for "COc1cc2ncnc(Nc3ccc(F)c(Cl)c3)c2cc1NC(=O)/C=C/CN1CCCCC1" ?
[A] no (0)

[Q] cell viability under 1? Item: "O=C(CCCCCCC(=O)Nc1ccccc1)NO"
[A] yes (1)

[Q] Just wondering, is cell viability of NC1CCCCC1N.O=C([O-])C(=O)[O-].[Pt+2] (centres undefined) below 1?
[A] no (0)

[Q] Please determine if "CCCCCCCCCCCCCC(=O)[O-].CCCCCCCCCCCCCC(=O)[O-].N[C@@H]1CCCC[C@H]1N.[Pt+2]" is below 1 in terms of cell viability.
[A] no (0)
